Test system: MCF-7 Tam1
Assay: viability inhibition at highest dose (% inhibition); higher = more growth inhibition
Details: 4-OH-tamoxifen in medium 1 µM; 72 h
Structures can show the parent of a compound that is named as a salt.
Mark class 1 for viability inhibition at highest dose under 20, class 0 if at or over.

Sample answers from the record:
[
  {
    "compound": "C=C(c1ccc(C(=O)O)cc1)c1cc2c(cc1C)C(C)(C)CCC2(C)C [Bexarotene] (drug 10000 nM)",
    "group": "class 1"
  },
  {
    "compound": "CN(C)C/C=C/C(=O)Nc1cc2c(Nc3ccc(F)c(Cl)c3)ncnc2cc1O[C@H]1CCOC1 [Afatinib (BIBW2992, Tovok)] (drug 1000 nM)",
    "group": "class 1"
  },
  {
    "compound": "CCN(CC)CCOc1ccc(C(=C(Cl)c2ccccc2)c2ccccc2)cc1 [Clomifene citrate] (drug 10000 nM)",
    "group": "class 0"
  },
  {
    "compound": "C[C@@H]1C[C@H]2[C@@H]3CCC4=CC(=O)C=C[C@]4(C)[C@@]3(F)[C@@H](O)C[C@]2(C)[C@@]1(O)C(=O)CO [Dexamethasone (Decadron)] (drug 10000 nM)",
    "group": "class 1"
  }
]

Q) Please indicate whether the reported viability inhibition at highest dose of CC[C@]1(O)C[C@H]2CN(CCc3c([nH]c4ccccc34)[C@@](C(=O)OC)(c3cc4c(cc3OC)N(C=O)[C@H]3[C@@](O)(C(=O)OC)[C@H](OC(C)=O)[C@]5(CC)C=CCN6CC[C@]43[C@@H]65)C2)C1 [Vincristine] (drug 10000 nM) is strictly below 20.
A) class 1

Q) Quick check: does CNC(=O)c1ccccc1Sc1ccc2c(/C=C/c3ccccn3)n[nH]c2c1 [Axitinib] (drug 10000 nM) have viability inhibition at highest dose under 20?
A) class 0

====

System: T-47D Tam2
Assay: drug sensitivity score (DSS) (DSS (dimensionless)); higher = more sensitive; extreme values may be limits of the assay
Settings: 4-OH-tamoxifen in medium 1 µM; 72 h
Structures can show the parent of a compound that is named as a salt.
drug sensitivity score of 0.1 or higher: TRUE. Under 0.1: FALSE.

[
  {
    "compound": "c1ccc([C@H]2CN3CCSC3=N2)cc1 [Levamisole, (Tetramisole hydrochloride)]",
    "group": "FALSE"
  },
  {
    "compound": "CNC(=O)c1ccc(N2C(=S)N(c3ccc(C#N)c(C(F)(F)F)c3)C(=O)C23CCC3)cc1F",
    "group": "FALSE"
  },
  {
    "compound": "NC(=O)NO [Hydroxyurea]",
    "group": "FALSE"
  },
  {
    "compound": "O=C(O)C(=O)O.[NH-][C@@H]1CCCC[C@H]1[NH-].[Pt+2]",
    "group": "FALSE"
  }
]

Now let's try a different one.
Q) Determine whether this compound has drug sensitivity score no lower than 0.1: O=P1(NCCCl)OCCCN1CCCl (stereo unspecified) [Ifosfamide]
A) FALSE

====

Measured relative IC50 values are reported for all entries that follow.
Tested on: BT-474 Tam2
Assay: relative IC50 (midpoint of fitted logistic curve, plateau may be below 50% inhibition; CellTiter-Glo viability); higher = less potent
Conditions: 4-OH-tamoxifen in medium 1 µM; 72 h
Structures can show the parent of a compound that is named as a salt.

The following molecules have reported results that may help.
[
  {
    "molecule": "C[C@@H]1C[C@H]2[C@@H]3CCC4=CC(=O)C=C[C@]4(C)[C@@]3(F)[C@@H](O)C[C@]2(C)[C@@]1(O)C(=O)CO",
    "relative IC50": "> 10 µM"
  },
  {
    "molecule": "COC(=O)c1ccc2c(c1)NC(=O)/C2=C(\\Nc1ccc(N(C)C(=O)CN2CCN(C)CC2)cc1)c1ccccc1",
    "relative IC50": "> 10 µM"
  }
]

Could you now look at the following molecule, please?
Q) Look up and report measured relative IC50 for this entry: c1ccc([C@H]2CN3CCSC3=N2)cc1 [Levamisole, (Tetramisole hydrochloride)]
A) > 10 µM

====

Listed below: relative IC50 values for each entry.
Tested on: BT-474
Test: relative IC50 (midpoint of fitted logistic curve, plateau may be below 50% inhibition; CellTiter-Glo viability); higher = less potent
Conditions: 4-OH-tamoxifen in medium 1 µM; 72 h

Q) State measured relative IC50 of the compound C=CC(=O)N1CCC[C@@H](n2nc(-c3ccc(Oc4ccccc4)cc3)c3c(N)ncnc32)C1 with BT-474.
A) 0.00556 µM

Q) Please report relative IC50 with BT-474 for item C[C@@H]1CCN(C(=O)CC#N)C[C@@H]1N(C)c1ncnc2[nH]ccc12 [Tofacitinib (Tasocitinib)] .
A) > 5 µM

Q) Answer with relative IC50 of CC(C)(C)NC(=O)[C@H]1CC[C@H]2[C@@H]3CC[C@H]4NC(=O)C=C[C@]4(C)[C@H]3CC[C@]12C [Finasteride] measured for BT-474.
A) > 10 µM

Q) Give relative IC50 for this entry on BT-474: C[C@]12C=CC(=O)C=C1CC[C@@H]1[C@@H]2[C@@H](O)C[C@@]2(C)[C@H]1CC[C@]2(O)C(=O)CO [Prednisolone]
A) > 10 µM

====

Tested on: BT-474
Assay: drug sensitivity score (DSS) (DSS (dimensionless)); higher = more sensitive; extreme values may be limits of the assay
Details: 4-OH-tamoxifen in medium 1 µM; 72 h
metric: drug sensitivity score
Respond numerically, and do not add a unit to the figure.

Some molecules with recorded drug sensitivity score:
[
  {
    "molecularString": "O=c1[nH]cc(F)c(=O)[nH]1",
    "metric": "drug sensitivity score",
    "observedValue": 0
  },
  {
    "molecularString": "Cn1cc(C2=C(c3cn(C4CCN(Cc5ccccn5)CC4)c4ccccc34)C(=O)NC2=O)c2ccccc21",
    "metric": "drug sensitivity score",
    "observedValue": 0
  }
]

Now consider a different molecule.
Q) For the molecule CO[C@H]1C[C@@H]2CC[C@@H](C)[C@@](O)(O2)C(=O)C(=O)N2CCCC[C@H]2C(=O)O[C@H]([C@H](C)C[C@@H]2CC[C@@H](OCCO)[C@H](OC)C2)CC(=O)[C@H](C)/C=C(\C)[C@@H](O)[C@@H](OC)C(=O)[C@H](C)C[C@H](C)/C=C/C=C/C=C/1C , report drug sensitivity score.
A) 0.135

====

Measured drug sensitivity score, listed per entry for reference.
System: MCF-7
Assay: drug sensitivity score (DSS) (DSS (dimensionless)); higher = more sensitive; extreme values may be limits of the assay
Conditions: 4-OH-tamoxifen in medium 0 µM; 72 h
Give your answer as a number; write no unit.

[
  {
    "compound": "CC[C@@]1(O)C(=O)OCc2c1cc1n(c2=O)Cc2cc3c(CN(C)C)c(O)ccc3nc2-1",
    "metric": "drug sensitivity score",
    "observedValue": 0.567
  },
  {
    "compound": "CC[C@]1(O)C[C@@H]2CN(CCc3c([nH]c4ccccc34)[C@@](C(=O)OC)(c3cc4c(cc3OC)N(C)[C@H]3[C@@](O)(C(=O)OC)[C@H](OC(C)=O)[C@]5(CC)C=CCN6CC[C@]43[C@@H]65)C2)C1",
    "metric": "drug sensitivity score",
    "observedValue": 12.8
  },
  {
    "compound": "OC[C@H]1O[C@@H](n2cnc3c2N=CNC[C@H]3O)C[C@@H]1O",
    "metric": "drug sensitivity score",
    "observedValue": 4.26
  },
  {
    "compound": "COc1cc2c(Oc3ccc4[nH]c(C)cc4c3F)ncnc2cc1OCCCN1CCCC1",
    "metric": "drug sensitivity score",
    "observedValue": 0.0072
  },
  {
    "compound": "CCCCCCCCc1ccc(CCC(N)(CO)CO)cc1",
    "metric": "drug sensitivity score",
    "observedValue": 5.74
  }
]

Q) Enter recorded drug sensitivity score with MCF-7 for CCC1(c2ccc(N)cc2)CCC(=O)NC1=O (stereo unspecified) [Aminoglutethimide] here.
A) 0

Q) Please look at Cc1ccc(NC(=O)c2ccc(CN3CCN(C)CC3)cc2)cc1Nc1nccc(-c2cccnc2)n1 and tell me its recorded drug sensitivity score on MCF-7.
A) 0

Q) # return drug sensitivity score for CC(=O)O[C@H]1C(=O)[C@@]2(C)[C@H]([C@H](OC(=O)c3ccccc3)[C@]3(O)C[C@H](OC(=O)[C@H](O)[C@@H](NC(=O)c4ccccc4)c4ccccc4)C(C)=C1C3(C)C)[C@]1(OC(C)=O)CO[C@@H]1C[C@@H]2O , test system: MCF-7
A) 7.01

Q) State the measured drug sensitivity score (MCF-7) of Cn1c(=O)n(-c2ccc(C(C)(C)C#N)cc2)c2c3cc(-c4cnc5ccccc5c4)ccc3ncc21
A) 18.3

Q) Supply drug sensitivity score measured with MCF-7 for CC(=O)[C@]1(O)Cc2c(O)c3c(c(O)c2[C@@H](O[C@H]2C[C@H](N)[C@H](O)[C@H](C)O2)C1)C(=O)c1ccccc1C3=O .
A) 6.65

Q) Name the value of drug sensitivity score reported for CN1CCN(CCOc2cc(OC3CCOCC3)c3c(Nc4c(Cl)ccc5c4OCO5)ncnc3c2)CC1 when tested on MCF-7.
A) 2.15

Q) With MCF-7 as the test system, provide measured drug sensitivity score for this compound: CCCCCOC(=O)Nc1nc(=O)n([C@@H]2O[C@H](C)[C@@H](O)[C@H]2O)cc1F
A) 0

Q) Tell me its drug sensitivity score on MCF-7: COCC1(CO)C(=O)C2CCN1CC2 (stereo unspecified)
A) 0.0674

Q) Enter drug sensitivity score (test system MCF-7) for N[C@@H](CSC(c1ccccc1)(c1ccccc1)c1ccccc1)C(=O)O
A) 0

Q) Output reported drug sensitivity score of the compound CC[C@@H]1C(=O)N(C)c2cnc(Nc3ccc(C(=O)N[C@H]4CC[C@H](N5CCN(CC6CC6)CC5)CC4)cc3OC)nc2N1C(C)C on MCF-7.
A) 2.8

Q) Lab note: MCF-7 assay, enter drug sensitivity score for CCN1CCN(c2ccc(Nc3cc(N(C)C(=O)Nc4c(Cl)c(OC)cc(OC)c4Cl)ncn3)cc2)CC1 here
A) 0

Q) Recall the reported drug sensitivity score of Cc1cn(-c2cc(NC(=O)c3ccc(C)c(Nc4nccc(-c5cccnc5)n4)c3)cc(C(F)(F)F)c2)cn1 on MCF-7 and write it down.
A) 0

Q) Please report the measured drug sensitivity score for c1ccc2c(CCNc3ccc(Nc4ccncc4)cc3)c[nH]c2c1 tested on MCF-7.
A) 2.88

Q) Provide drug sensitivity score, recorded with MCF-7, of CC1=C(/C=C/C(C)=C/C=C/C(C)=C/C(=O)O)C(C)(C)CCC1
A) 0

Q) Write drug sensitivity score of Oc1ccc2c(c1)CC[C@H](c1ccccc1)[C@@H]2c1ccc(OCCN2CCCC2)cc1 ; system used: MCF-7
A) 1.49

Q) GET drug sensitivity score | system: MCF-7 | item: Cc1cc2c(F)c(Oc3ncnn4cc(OC[C@@H](C)O)c(C)c34)ccc2[nH]1
A) 0

Q) Consider the compound CCc1c(C(=O)C(N)=O)c2c(OCC(=O)O)cccc2n1Cc1ccccc1 tested on MCF-7; state its drug sensitivity score.
A) 0.0495

Q) Find the measured drug sensitivity score of COc1ccc(S(=O)(=O)Nc2cccnc2Nc2ccc(O)cc2)cc1 with MCF-7 as test system.
A) 6.87

Q) Look up MCF-7 data: drug sensitivity score of Cn1nnc2c(C(N)=O)ncn2c1=O [Temozolomide] , then report it.
A) 0

Q) Provide drug sensitivity score, recorded with MCF-7, of N#Cc1ccc(C(c2ccc(C#N)cc2)n2cncn2)cc1
A) 0

Q) Jot down drug sensitivity score (MCF-7) of COc1cc(F)c(F)c(Nc2ccc(I)cc2F)c1NS(=O)(=O)C1(C[C@H](O)CO)CC1 [Refametinib (RDEA119)] .
A) 3.75

These data points were gathered from the supplement of paper PMC4932681.
